endpointName: melting point

Query string: Please report the recorded melting point for COc1ccc(Cn2c(=O)[nH]c(=S)c3[nH]c(C(C)C)nc32)cc1OC1CCCC1 (hydrate or solvate) .
Result string: 192 to 193 °C

Query string: Query (compound): CCCn1c(=O)[nH]c(=S)c2[nH]c(Cc3ccc4ccccc4c3)nc21 ; field requested: melting point
Result string: 220 to 223 °C

Query string: Form field: reported melting point of CCCNc1nc(=O)n(CC2CC2)c2nc(C(C)C)[nH]c12
Result string: 208 to 210 °C

Query string: Name the recorded melting point for CCn1c(=O)[nH]c(=S)c2[nH]c(Cc3ccc(OC)c(OC4CCCC4)c3)nc21 .
Result string: 195 to 197 °C

Query string: For CCCn1c(=O)[nH]c(=S)c2[nH]c(Cc3ccc(OC)c(OC)c3)nc21 , what is its reported melting point?
Result string: 237 to 239 °C

Query string: Please report the recorded melting point for O=c1[nH]c(=S)c2[nH]cnc2n1Cc1ccc(Cl)cc1 .
Result string: 313 to 317 °C

Query string: Could you tell me which melting point is on file for CC(C)c1nc2c([nH]1)c(=S)[nH]c(=O)n2Cc1ccncc1 ?
Result string: 310 to 314 °C (dec.)

Query string: Given the entry CC(C)c1nc2c([nH]1)c(=S)[nH]c(=O)n2Cc1cccc(Cl)c1 , report its measured melting point.
Result string: 218 to 220 °C

Query string: Record request: melting point value, item CCNc1nc(=O)n(Cc2ccc(OC)c(OC3CCCC3)c2)c2nc(C(C)C)[nH]c12
Result string: 110 to 115 °C

---

For each record, write down the corresponding pIC50.
# testedTarget: Type V PDE isolated from platelets (Homo sapiens, UniProt O76074)
# Construct: Fractions that contain PDE V are pooled and dialyzed overnight
# procedureText: Type V PDE inhibition, hydrolysis of [3H]-cyclic GMP
# testConditions: cyclic GMP 0.2 uM; 2.5% DMSO
Worth noting: pIC50 values are minus log10 of concentrations stated in mol/L.

Query string: Field: pIC50 (Type V PDE isolated from platelets (Homo sapiens, UniProt O76074)). Entry: CC(C)c1nc2c([nH]1)c(=S)[nH]c(=O)n2Cc1ccc(Cl)cc1
Result string: 5.70

Query string: API: value(readout=pIC50, system=Type V PDE isolated from platelets (Homo sapiens, UniProt O76074)) for record COc1ccc(Cn2c(=O)[nH]c(=S)c3[nH]c(C(C)C)nc32)cc1OC1CCCC1
Result string: 4.59

Query string: Tell me reported pIC50 for CC(C)c1nc2c([nH]1)c(=S)[nH]c(=O)n2-c1cccc(Cl)c1 , tested with Type V PDE isolated from platelets (Homo sapiens, UniProt O76074).
Result string: 4.18

Query string: Identify the measured pIC50 of CCCn1c(=O)[nH]c(=S)c2[nH]c(Cc3ccc4ccccc4c3)nc21 for Type V PDE isolated from platelets (Homo sapiens, UniProt O76074).
Result string: 5.42

Query string: API: value(readout= pIC50, system= Type V PDE isolated from platelets (Homo sapiens, UniProt O76074), query= CCn1c(=O)[nH]c(=S)c2[nH]c(Cc3ccc(OC)c(OC4CCCC4)c3)nc21 )
Result string: 4.62

Query string: Recall the recorded pIC50 for CCNc1nc(=O)n(Cc2ccc(Cl)cc2)c2nc(C(C)C)[nH]c12 with Type V PDE isolated from platelets (Homo sapiens, UniProt O76074) and state it.
Result string: 6.30

Query string: What pIC50 appears in the records for this molecule with Type V PDE isolated from platelets (Homo sapiens, UniProt O76074)? CC(C)c1nc2c([nH]1)c(=S)[nH]c(=O)n2Cc1cccc(Cl)c1
Result string: 6.15

---

# testedTarget: Type III PDE isolated from human platelets (Homo sapiens, UniProt Q14432)
# Construct: Fractions containing PDE III activity are pooled and dialyzed overnight; from tissue; host or cells: human platelets (100,000 x g supernatant, DEAE-Trisacryl M fraction)
# Sequence (Q14432 whole entry): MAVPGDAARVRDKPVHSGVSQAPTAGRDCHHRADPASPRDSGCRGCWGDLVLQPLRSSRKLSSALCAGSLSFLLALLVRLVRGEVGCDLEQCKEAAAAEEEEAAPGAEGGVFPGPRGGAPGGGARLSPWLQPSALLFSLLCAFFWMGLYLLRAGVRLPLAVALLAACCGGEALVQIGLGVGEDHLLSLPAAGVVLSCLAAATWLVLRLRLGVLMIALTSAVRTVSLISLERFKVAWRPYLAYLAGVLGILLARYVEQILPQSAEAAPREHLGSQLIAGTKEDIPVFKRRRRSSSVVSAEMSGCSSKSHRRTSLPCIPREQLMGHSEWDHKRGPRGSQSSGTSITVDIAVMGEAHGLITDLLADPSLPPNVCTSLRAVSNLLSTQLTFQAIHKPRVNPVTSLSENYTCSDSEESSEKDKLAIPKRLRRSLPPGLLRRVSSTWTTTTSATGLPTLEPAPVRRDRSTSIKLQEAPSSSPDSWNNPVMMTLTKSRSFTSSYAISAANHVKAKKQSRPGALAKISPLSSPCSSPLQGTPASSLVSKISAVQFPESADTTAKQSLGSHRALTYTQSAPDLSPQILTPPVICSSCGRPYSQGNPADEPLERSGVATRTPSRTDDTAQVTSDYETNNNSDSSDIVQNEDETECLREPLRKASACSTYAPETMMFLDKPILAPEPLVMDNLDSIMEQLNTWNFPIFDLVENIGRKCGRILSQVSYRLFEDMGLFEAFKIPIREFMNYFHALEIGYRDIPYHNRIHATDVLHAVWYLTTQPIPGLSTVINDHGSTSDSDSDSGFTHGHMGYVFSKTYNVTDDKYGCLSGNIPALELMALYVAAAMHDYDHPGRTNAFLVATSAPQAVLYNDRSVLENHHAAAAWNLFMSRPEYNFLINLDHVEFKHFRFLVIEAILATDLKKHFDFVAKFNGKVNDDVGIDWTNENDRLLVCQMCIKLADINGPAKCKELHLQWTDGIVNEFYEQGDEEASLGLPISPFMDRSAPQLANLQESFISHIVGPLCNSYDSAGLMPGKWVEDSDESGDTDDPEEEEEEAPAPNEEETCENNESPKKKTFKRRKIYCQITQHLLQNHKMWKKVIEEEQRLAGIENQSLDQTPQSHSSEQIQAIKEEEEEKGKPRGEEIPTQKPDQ
# procedureText: Type III PDE inhibition, hydrolysis of [3H]-cyclic AMP
# Format: biochemical
# testConditions: cyclic AMP 0.2 μM; 2.5% DMSO; read-out: PDE ACTIVITY IC50 PDE III
endpointName: IC50 (µM)
Quick note: give the figure in µM, leave out the unit.

Query string: For the compound CCCn1c(=O)[nH]c(=S)c2[nH]c(Cc3ccc(OC)c(OC)c3)nc21 , what IC50 is on record?
Result string: 23.6

Query string: Name the recorded IC50 for CCNc1nc(=O)n(CC)c2nc(C3CC3)[nH]c12 .
Result string: 207

Query string: Looking for the measured IC50 of CCNc1nc(=O)n(Cc2ccc(Cl)cc2)c2nc(C(C)C)[nH]c12 , can you help?
Result string: 317

Query string: For CC(C)c1nc2c([nH]1)c(=S)[nH]c(=O)n2Cc1ccncc1 , what is its reported IC50?
Result string: 215

// provenance: patent US6440979B1
